Target: Epidermal growth factor receptor (Homo sapiens, UniProt P00533)
Sequence (P00533 whole entry): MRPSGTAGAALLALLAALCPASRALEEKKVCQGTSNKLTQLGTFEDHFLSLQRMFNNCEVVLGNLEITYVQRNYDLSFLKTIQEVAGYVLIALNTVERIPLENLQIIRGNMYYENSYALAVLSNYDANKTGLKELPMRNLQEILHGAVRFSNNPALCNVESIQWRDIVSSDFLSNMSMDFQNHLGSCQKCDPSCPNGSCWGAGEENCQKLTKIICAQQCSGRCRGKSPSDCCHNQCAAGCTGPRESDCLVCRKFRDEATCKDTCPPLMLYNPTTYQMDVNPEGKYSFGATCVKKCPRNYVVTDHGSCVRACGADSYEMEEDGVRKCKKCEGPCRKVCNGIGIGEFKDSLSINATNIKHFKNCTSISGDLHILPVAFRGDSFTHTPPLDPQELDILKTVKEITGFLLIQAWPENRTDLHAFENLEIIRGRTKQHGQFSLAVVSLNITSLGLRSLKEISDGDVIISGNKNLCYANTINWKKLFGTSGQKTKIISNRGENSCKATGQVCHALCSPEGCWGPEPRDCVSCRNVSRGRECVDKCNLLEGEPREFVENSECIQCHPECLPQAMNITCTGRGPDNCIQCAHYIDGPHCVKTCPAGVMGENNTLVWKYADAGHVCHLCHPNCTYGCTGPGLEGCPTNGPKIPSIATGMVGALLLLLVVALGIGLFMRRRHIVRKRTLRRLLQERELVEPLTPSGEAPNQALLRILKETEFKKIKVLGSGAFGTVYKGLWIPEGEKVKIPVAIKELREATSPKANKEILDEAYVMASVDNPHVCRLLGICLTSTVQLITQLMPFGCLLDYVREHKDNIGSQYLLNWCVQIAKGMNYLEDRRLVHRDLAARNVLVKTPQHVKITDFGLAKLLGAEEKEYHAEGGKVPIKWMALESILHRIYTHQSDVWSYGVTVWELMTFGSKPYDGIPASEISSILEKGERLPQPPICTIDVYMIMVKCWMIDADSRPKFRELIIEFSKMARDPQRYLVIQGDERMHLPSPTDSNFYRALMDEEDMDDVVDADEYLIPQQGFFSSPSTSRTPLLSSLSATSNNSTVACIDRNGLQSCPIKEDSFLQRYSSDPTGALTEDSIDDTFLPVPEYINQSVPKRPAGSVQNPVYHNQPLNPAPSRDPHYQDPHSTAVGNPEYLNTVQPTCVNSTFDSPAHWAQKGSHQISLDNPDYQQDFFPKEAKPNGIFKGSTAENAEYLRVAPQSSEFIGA
Test: Inhibition of wild type EGFR autophosphorylation in human A549 cells by Western blot analysis
Type: cell-based
Parameter: IC50 (µM)

mol_smiles=CCOc1cc2ncnc(Nc3ccc(F)c(Cl)c3)c2cc1NC(=O)CO result_number=0.027
mol_smiles=CCOc1cc2ncnc(Nc3ccc(F)c(Cl)c3)c2cc1NC(=O)COC(C)=O result_number=0.034

I: CCOc1cc2ncnc(Nc3ccc(F)c(Cl)c3)c2cc1NC(=O)COC(=O)c1ccccc1
II: CCOc1cc2ncnc(Nc3ccc(F)c(Cl)c3)c2cc1NC(=O)COC(=O)c1c(C)cccc1C
Query block: Lab note: check whether I or II has the lower measured IC50. Field: selected label. Fill in the label of the entry you choose.
Result block: I

====

Tested on: Epidermal growth factor receptor (Homo sapiens), P00533 [L858R,T790M]
Sequence (P00533 whole entry T790M/L858R, looked up): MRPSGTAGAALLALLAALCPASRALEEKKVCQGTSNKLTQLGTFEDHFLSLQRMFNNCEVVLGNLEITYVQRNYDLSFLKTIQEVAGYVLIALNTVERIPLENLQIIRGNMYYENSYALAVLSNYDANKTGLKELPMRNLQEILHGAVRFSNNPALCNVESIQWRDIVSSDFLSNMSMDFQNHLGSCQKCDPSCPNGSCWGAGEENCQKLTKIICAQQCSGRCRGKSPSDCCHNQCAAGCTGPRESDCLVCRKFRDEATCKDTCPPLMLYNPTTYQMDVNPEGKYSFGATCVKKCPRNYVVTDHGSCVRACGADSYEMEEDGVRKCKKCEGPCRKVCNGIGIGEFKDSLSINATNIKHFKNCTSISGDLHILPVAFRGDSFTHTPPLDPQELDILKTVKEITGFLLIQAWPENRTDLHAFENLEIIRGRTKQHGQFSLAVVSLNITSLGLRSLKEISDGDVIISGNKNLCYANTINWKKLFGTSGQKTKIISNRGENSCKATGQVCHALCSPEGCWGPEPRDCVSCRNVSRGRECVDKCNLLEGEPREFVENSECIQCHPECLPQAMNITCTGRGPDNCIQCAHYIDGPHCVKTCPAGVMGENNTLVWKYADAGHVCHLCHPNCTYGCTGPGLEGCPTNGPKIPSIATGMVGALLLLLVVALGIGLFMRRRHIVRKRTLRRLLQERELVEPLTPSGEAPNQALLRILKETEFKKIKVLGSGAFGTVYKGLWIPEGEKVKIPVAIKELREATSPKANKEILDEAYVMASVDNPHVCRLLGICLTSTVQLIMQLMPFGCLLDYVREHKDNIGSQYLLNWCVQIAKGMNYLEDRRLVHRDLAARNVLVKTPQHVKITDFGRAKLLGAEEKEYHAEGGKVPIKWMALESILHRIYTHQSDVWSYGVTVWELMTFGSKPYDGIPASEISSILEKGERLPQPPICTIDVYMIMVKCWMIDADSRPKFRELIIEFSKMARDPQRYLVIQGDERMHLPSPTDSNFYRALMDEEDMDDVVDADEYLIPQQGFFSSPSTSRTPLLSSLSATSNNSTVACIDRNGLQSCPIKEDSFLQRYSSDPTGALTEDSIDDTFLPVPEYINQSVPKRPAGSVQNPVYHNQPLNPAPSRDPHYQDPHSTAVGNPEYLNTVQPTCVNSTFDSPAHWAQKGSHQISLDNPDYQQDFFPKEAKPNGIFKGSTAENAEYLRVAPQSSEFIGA
Settings: NCI-H1975, at 0.1 µM
Description: Inhibition of EGFR T790M/L858R double mutant auto-phosphorylation in human NCI-H1975 cells at 0.1 uM by Western blot analysis relative to control
Parameter: inhibition (%)

These solved cases illustrate the format of a correct answer.
mol_smiles=CCOc1cc2ncnc(Nc3ccc(F)c(Cl)c3)c2cc1NC(=O)COC(C)=O parameter=inhibition units_text=% result_number=27
mol_smiles=CCOc1cc2ncnc(Nc3ccc(F)c(Cl)c3)c2cc1NC(=O)COC(=O)c1ccccc1 parameter=inhibition units_text=% result_number=0.5

I: CCOc1cc2ncnc(Nc3ccc(F)c(Cl)c3)c2cc1NC(=O)COC(=O)c1c(C)cccc1C
II: CCOc1cc2ncnc(Nc3ccc(F)c(Cl)c3)c2cc1NC(=O)CO
Query block: Recorded inhibition values differ for I and II ; which one is higher? Response format: the label of the selected entry.
Result block: I

====

Test: Cysteine reactivity in pH 10 CAPS buffer assessed as half life for cysteine-compound adduct formation at 10 uM after 24 hrs in presence of 100 molar excess cysteine by LC-MS analysis
Parameter: T1/2

Some compounds with recorded T1/2:
mol_smiles=CCOc1cc2ncnc(Nc3ccc(F)c(Cl)c3)c2cc1NC(=O)COC(=O)c1ccccc1 result="> 24 h"
mol_smiles=CCOc1cc2ncnc(Nc3ccc(F)c(Cl)c3)c2cc1NC(=O)COC(=O)c1c(C)cccc1C result="> 24 h"
mol_smiles=CCOc1cc2ncnc(Nc3ccc(F)c(Cl)c3)c2cc1NC(=O)CO result="> 24 h"

Now for the compound whose T1/2 we want.
Given item `CCOc1cc2ncnc(Nc3ccc(F)c(Cl)c3)c2cc1NC(=O)COC(C)=O` , the value recorded as its T1/2 is 23.3 h

====

Target: Epidermal growth factor receptor (Homo sapiens, UniProt P00533)
Details: A549, at 1 µM
Description: Inhibition of wild type EGFR autophosphorylation in human A549 cells at 1 uM by Western blot analysis relative to control
Parameter: inhibition (%)

mol_smiles=CCOc1cc2ncnc(Nc3ccc(F)c(Cl)c3)c2cc1NC(=O)COC(C)=O target_or_test_system="Epidermal growth factor receptor (Homo sapiens, UniProt P00533)" result_number=97
mol_smiles=CCOc1cc2ncnc(Nc3ccc(F)c(Cl)c3)c2cc1NC(=O)COC(=O)c1ccccc1 target_or_test_system="Epidermal growth factor receptor (Homo sapiens, UniProt P00533)" result_number=88
mol_smiles=CCOc1cc2ncnc(Nc3ccc(F)c(Cl)c3)c2cc1NC(=O)CO target_or_test_system="Epidermal growth factor receptor (Homo sapiens, UniProt P00533)" result_number=90
mol_smiles=CCOc1cc2ncnc(Nc3ccc(F)c(Cl)c3)c2cc1NC(=O)COC(=O)c1c(C)cccc1C target_or_test_system="Epidermal growth factor receptor (Homo sapiens, UniProt P00533)" result_number=97
